System: FT3469 (normal neural stem cell line)
protocol: surviving fraction (nuclei count normalised to DMSO); higher = more cells surviving (less toxic)
recorded_conditions: 37 nM; exposure time: 72 h
Where a name gives a salt, the structure may show the parent alone.
quantity_measured: surviving fraction
Simply state the number, no unit and no words.

>>> result_value("C/C(=C\\c1csc(C)n1)[C@@H]1C[C@@H]2O[C@]2(C)CCC[C@H](C)[C@H](O)[C@@H](C)C(=O)C(C)(C)[C@@H](O)CC(=O)N1 [Ixabepilone]")
0.63
>>> result_value("C=C(C)[C@H]1Cc2c(ccc3c2O[C@@H]2COc4cc(OC)c(OC)cc4[C@@H]2C3=O)O1 [Rotenone]")
0.826
>>> result_value("OC[C@H]1NC[C@H](O)[C@@H](O)[C@@H]1O [1-Deoxynojirimycin]")
0.953

## Task Answer with reported surviving fraction of CCCCCCCCCCCCCCCC[N+](C)(C)CCN(Cc1ccc(OC)cc1)c1ncccn1 [Thonzonium bromide]
## Result 0.968

## Task Answer with reported surviving fraction of NCCNc1ccc(NCCN)c2c1C(=O)c1ccncc1C2=O [Pixantrone dimaleate]
## Result 0.763

## Task Answer with reported surviving fraction of O=C(CCBr)N1CCN(C(=O)CCBr)CC1 [Pipobroman]
## Result 0.946

## Task Answer with reported surviving fraction of Cc1nc2ccccn2c(=O)c1CCN1CCC(C(=O)c2ccc(F)cc2)CC1 [Pirenperone]
## Result 1.17

## Task Answer with reported surviving fraction of Nc1ccn([C@@H]2O[C@H](CO)[C@@H](O)C2(F)F)c(=O)n1 [Gemcitabine HCl]
## Result 0.616

## Task Answer with reported surviving fraction of CC(=O)O[C@H]1C[C@H](O[C@H]2[C@@H](O)C[C@H](O[C@H]3[C@@H](O)C[C@H](O[C@H]4CC[C@@]5(C)[C@H](CC[C@@H]6[C@@H]5C[C@@H](O)[C@]5(C)[C@@H](C7=CC(=O)OC7)CC[C@]65O)C4)O[C@@H]3C)O[C@@H]2C)O[C@H](C)[C@H]1O[C@@H]1O[C@H](CO)[C@@H](O)[C@H](O)[C@H]1O [Lanatoside C]
## Result 0.622

## Task Answer with reported surviving fraction of CCc1c2c(nc3ccc(OC(=O)N4CCC(N5CCCCC5)CC4)cc13)-c1cc3c(c(=O)n1C2)COC(=O)[C@]3(O)CC [Irinotecan]
## Result 0.96

## Task Answer with reported surviving fraction of COC(=O)C[C@](O)(CCCC(C)(C)O)C(=O)O[C@@H]1C(OC)=C[C@]23CCCN2CCc2cc4c(cc2[C@H]13)OCO4 [Homoharringtonine]
## Result 0.604

====

System: E34 (patient-derived glioblastoma stem cells of proneural subtype)
protocol: phenotypic distance (Euclidean, principal components) from DMSO controls (arbitrary units); higher = stronger morphological change
recorded_conditions: 3000 nM; exposure time: 72 h
Structures can show the parent of a compound that is named as a salt.
Output Yes for phenotypic distance not less than 1; output No otherwise.

Worked cases, answers included:
>>> category_label("CCOC(=O)OC(C)OC1=C(C(=O)Nc2ccccn2)N(C)S(=O)(=O)c2ccccc21 (configuration not stated)")
"No"
>>> category_label("O=c1[nH]c(=O)n([C@H]2C[C@H](O)[C@@H](CO)O2)cc1I")
"Yes"
>>> category_label("CCCCCCCCCCCCCC(=O)O[C@@H]1[C@@H](C)[C@@]2(O)[C@@H](C=C(CO)C[C@]3(O)C(=O)C(C)=C[C@@H]23)[C@@H]2C(C)(C)[C@]12OC(C)=O [Phorbol 12-myristate 13-acetate]")
"Yes"
>>> category_label("COc1cc(/C=C/C(=O)N2CCC=CC2=O)cc(OC)c1OC")
"Yes"
>>> category_label("COC(=O)[C@@H]1[C@H]2C[C@H]3c4[nH]c5ccccc5c4CCN3C[C@@H]2CC[C@@H]1O [Yohimbine hydrochloride]")
"No"

## Task Quick check: does CC1=C(/C=C/C(C)=C/C=C/C(C)=C/C(=O)Nc2ccc(O)cc2)C(C)(C)CCC1 [Retinoic acid p-hydroxyanilide] have phenotypic distance greater than or equal to 1?
## Result Yes

## Task Quick check: does Cc1ncc(CO)c(CO)c1O [Pyridoxine hydrochloride] have phenotypic distance greater than or equal to 1?
## Result No

====

System: E34
protocol: surviving fraction (nuclei count normalised to DMSO); higher = more cells surviving (less toxic)
recorded_conditions: 111.1 nM; exposure time: 72 h
Counter-ions that a name gives are not always drawn.
Output Fulfilled for surviving fraction not less than 0.7; output Not fulfilled otherwise.

## Task Quick check: does Clc1ccc(C(Cn2ccnc2)OCc2ccsc2Cl)c(Cl)c1 (stereo not drawn) [Tioconazole] have surviving fraction greater than or equal to 0.7?
## Result Fulfilled

## Task Quick check: does N=c1ccn2c(n1)O[C@H]1[C@H](O)[C@@H](CO)O[C@H]12 [Ancitabine hydrochloride] have surviving fraction greater than or equal to 0.7?
## Result Fulfilled

## Task Quick check: does CCC(C)n1ncn(-c2ccc(N3CCN(c4ccc(OCC5COC(Cn6cncn6)(c6ccc(Cl)cc6Cl)O5)cc4)CC3)cc2)c1=O (stereo not drawn) [Itraconazole] have surviving fraction greater than or equal to 0.7?
## Result Fulfilled

## Task Quick check: does CC(C)C[C@H](NC(=O)[C@H](CCc1ccccc1)NC(=O)CN1CCOCC1)C(=O)N[C@@H](Cc1ccccc1)C(=O)N[C@@H](CC(C)C)C(=O)[C@@]1(C)CO1 [Carfilzomib] have surviving fraction greater than or equal to 0.7?
## Result Not fulfilled

## Task Quick check: does Cc1cc(Nc2cc(N3CCN(C)CC3)nc(Sc3ccc(NC(=O)C4CC4)cc3)n2)n[nH]1 [Tozasertib] have surviving fraction greater than or equal to 0.7?
## Result Fulfilled

## Task Quick check: does O=C1c2c(O)ccc(O)c2C(=O)c2c(NCCNCCO)ccc(NCCNCCO)c21 [Mitoxantrone] have surviving fraction greater than or equal to 0.7?
## Result Not fulfilled

## Task Quick check: does COc1cc(OC)c(C(=O)CCCN2CCCC2)c(OC)c1 [Buflomedil hydrochloride] have surviving fraction greater than or equal to 0.7?
## Result Fulfilled

## Task Quick check: does Cc1nc2ccccn2c(=O)c1CCN1CCC(C(=O)c2ccc(F)cc2)CC1 [Pirenperone] have surviving fraction greater than or equal to 0.7?
## Result Fulfilled

====

Entries and their phenotypic distance
System: E28 (patient-derived glioblastoma stem cells of classical subtype)
protocol: phenotypic distance (Euclidean, principal components) from DMSO controls (arbitrary units); higher = stronger morphological change
recorded_conditions: 1000 nM; exposure time: 72 h
Where a name gives a salt, the structure may show the parent alone.
Simply state the number, no unit and no words.

>>> result_value("CC[C@H]1CN2CCc3cc(OC)c(OC)cc3[C@@H]2C[C@@H]1C[C@H]1NCCc2cc(OC)c(OC)cc21 [Emetine dihydrochloride hydrate]")
3.1
>>> result_value("CN[C@@H](C)C(=O)N[C@H](C(=O)N1CCC[C@H]1C(=O)N[C@H]1c2ccccc2C[C@H]1OCC#CC#CCO[C@@H]1Cc2ccccc2[C@@H]1NC(=O)[C@@H]1CCCN1C(=O)[C@@H](NC(=O)[C@H](C)NC)C1CCCCC1)C1CCCCC1")
0.712
>>> result_value("COc1cc([C@@H]2c3cc4c(cc3[C@@H](O[C@@H]3O[C@@H]5CO[C@@H](C)O[C@H]5[C@H](O)[C@H]3O)[C@H]3COC(=O)[C@H]23)OCO4)cc(OC)c1O [Etoposide]")
2.9
>>> result_value("C[C@@H](O)[C@H]1C(=O)N2C(C(=O)O)=C(S[C@@H]3CN[C@H](C(=O)N(C)C)C3)[C@H](C)[C@H]12")
0.83
>>> result_value("Cc1cc(C)c(CN2CCc3c(Cl)cc(-c4c(C)noc4C)c(Cl)c3C2=O)c(=O)[nH]1")
0.701

Please find the next molecule below.
## Task Answer with reported phenotypic distance of "CC[C@@]1(O)C(=O)OCc2c1cc1n(c2=O)Cc2cc3c(CN(C)C)c(O)ccc3nc2-1"
## Result 4.27

====

System: E21 (patient-derived glioblastoma stem cells of mesenchymal subtype)
protocol: phenotypic distance (Euclidean, principal components) from DMSO controls (arbitrary units); higher = stronger morphological change
recorded_conditions: 1000 nM; exposure time: 72 h
Entries and their phenotypic distance
Simply state the number, no unit and no words.

Below, each entry is followed by its recorded phenotypic distance result.
>>> result_value("Cc1cc(Nc2cc(CN3CCOCC3)c3nc(C)c(Cc4ccc(Cl)cc4F)n3n2)n[nH]1")
4.83
>>> result_value("COc1ccc(C(=O)CC(=O)c2ccc(C(C)(C)C)cc2)cc1")
0.701
>>> result_value("C[C@@H](O)[C@H]1C(=O)N2C(C(=O)O)=C(S[C@@H]3CN[C@H](C(=O)N(C)C)C3)[C@H](C)[C@H]12")
0.695

Please find the next molecule below.
## Task Answer with reported phenotypic distance of "OC[C@H]1NC[C@H](O)[C@@H](O)[C@@H]1O"
## Result 0.652

====

Tested on: E34
protocol: phenotypic distance (Euclidean, principal components) from DMSO controls (arbitrary units); higher = stronger morphological change
recorded_conditions: 4.1 nM; exposure time: 72 h
Entries and their phenotypic distance
Simply state the number, no unit and no words.

>>> result_value("CCN(CC)Cc1ccc(C(=O)N(CCc2ccccc2OC)[C@@H]2CCNC2)cc1")
0.768

## Task Provide the reported phenotypic distance (system: E34) for COc1ccc2[nH]c([S+]([O-])Cc3ncc(C)c(OC)c3C)nc2c1 (stereo unspecified)
## Result 1.17

## Task Provide the reported phenotypic distance (system: E34) for "C[C@@H](Oc1cc(-c2cnn(C3CCNCC3)c2)cnc1N)c1c(Cl)ccc(F)c1Cl"
## Result 0.825

## Task Provide the reported phenotypic distance (system: E34) for CCC(=O)OCC(=O)[C@@]1(OC(=O)CC)[C@H](C)C[C@H]2[C@H]3[C@H]([C@@H](O)C[C@@]21C)[C@@]1(C)C=CC(=O)C=C1C[C@H]3Cl [Alclometasone dipropionate]
## Result 0.626

## Task Provide the reported phenotypic distance (system: E34) for NCCNc1ccc(NCCN)c2c1C(=O)c1ccncc1C2=O [Pixantrone dimaleate]
## Result 0.885

Provenance of the data: the supplement of paper PMC13207355
